System: ML-2 (Acute Myeloid Leukemia)
measurement_protocol: combination Emax (second highest fraction inhibited in the dose matrix, 72 h); higher = more inhibition; extreme values may be limits of the assay
Give measured combination Emax for each item. Keep answers brief.
API note: the answer field is a bare number with no unit suffix.

Exercise: Given CS(=O)(=O)CCNCc1ccc(-c2ccc3ncnc(Nc4ccc(OCc5cccc(F)c5)c(Cl)c4)c3c2)o1 [Lapatinib] + Cn1cnc2c(F)c(Nc3ccc(Br)cc3Cl)c(C(=O)NOCCO)cc21 [Selumetinib] (first compound max 10 µM, 7x7, partner max 10 µM) , state its recorded combination Emax.
Solution: 0.715

Exercise: Given Cn1cnc2c(F)c(Nc3ccc(Br)cc3Cl)c(C(=O)NOCCO)cc21 [Selumetinib] + C[C@@H]1COCCN1C2=NC(=NC(=C2)C3(CC3)[S@](=N)(=O)C)C4=C5C=CNC5=NC=C4 [AZD6738] (first compound max 10 µM, 7x7, partner max 10 µM) , state its recorded combination Emax.
Solution: 0.982

Exercise: Given CN(CCO)CC[C@H](CSc1ccccc1)Nc1ccc(S(=O)(=O)NC(=O)c2ccc(N3CCC([C@@H](O)c4ccccc4-c4ccc(Cl)cc4)CC3)cc2)cc1S(=O)(=O)C(F)(F)F [AZD4320] + CN(C)CCCOc1ccc(-c2ccc3ncc4c(c3c2)n(C2CCOCC2)c(=O)n4C)cn1 [AZD0156] (first compound max 1 µM, 7x7, partner max 1 µM) , state its recorded combination Emax.
Solution: 0.963

Exercise: Given CCc1c2c(nc3ccc(O)cc13)-c1cc3c(c(=O)n1C2)COC(=O)[C@]3(O)CC [SN-38] + CN(C)CCCOc1ccc(-c2ccc3ncc4c(c3c2)n(C2CCOCC2)c(=O)n4C)cn1 [AZD0156] (first compound max 0.3 µM, 7x7, partner max 1 µM) , state its recorded combination Emax.
Solution: 1

Exercise: Given C[C@@H]1COCCN1c1cc(C2([S@](C)(=N)=O)CC2)nc(-c2ccnc3[nH]ccc23)n1 [AZD6738] + Nc1ccn([C@@H]2O[C@H](CO)[C@@H](O)C2(F)F)c(=O)n1 [Gemcitabine] (first compound max 10 µM, 7x7, partner max 0.3 µM) , state its recorded combination Emax.
Solution: 1

Exercise: Given COc1cccc2c1C(=O)c1c(O)c3c(c(O)c1C2=O)C[C@@](O)(C(=O)CO)C[C@@H]3O[C@H]1C[C@H](N)[C@H](O)[C@H](C)O1 [Doxorubicin] + Cc1cc2ncnn2cc1Nc1ncc2c(n1)n(C1CCOCC1)c(=O)n2C [AZD7648] (first compound max 1 µM, 7x7, partner max 10 µM) , state its recorded combination Emax.
Solution: 0.913

Exercise: Given Cc1c2c(nn1C)CSCc1cc(n(C)n1)CSc1cc(c3ccccc3c1)OCCCc1c(C(=O)O)n(C)c3c-2c(Cl)ccc13 [AZD5991] + CC1(C)CCC(CN2CCN(c3ccc(C(=O)NS(=O)(=O)c4ccc(NCC5CCOCC5)c([N+](=O)[O-])c4)c(Oc4cnc5[nH]ccc5c4)c3)CC2)=C(c2ccc(Cl)cc2)C1 [Venetoclax] (first compound max 1 µM, 7x7, partner max 1 µM) , state its recorded combination Emax.
Solution: 1
